# TARGET_DESC: CAMK2A (human) (UniProt Q9UQM7)
# Sequence (Q9UQM7 whole entry, looked up): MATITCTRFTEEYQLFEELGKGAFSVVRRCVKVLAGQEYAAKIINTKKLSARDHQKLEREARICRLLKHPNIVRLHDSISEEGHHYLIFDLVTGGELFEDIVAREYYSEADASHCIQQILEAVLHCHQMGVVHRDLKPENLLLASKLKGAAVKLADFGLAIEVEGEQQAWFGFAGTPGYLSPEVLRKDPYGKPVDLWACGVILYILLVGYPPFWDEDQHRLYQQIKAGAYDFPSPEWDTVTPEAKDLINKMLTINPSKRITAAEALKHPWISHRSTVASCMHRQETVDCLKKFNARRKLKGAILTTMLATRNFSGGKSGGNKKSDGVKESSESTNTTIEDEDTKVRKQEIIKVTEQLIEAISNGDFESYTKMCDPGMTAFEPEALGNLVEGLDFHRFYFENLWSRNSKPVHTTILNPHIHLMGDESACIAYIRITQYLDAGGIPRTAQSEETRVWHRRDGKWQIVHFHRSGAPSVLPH
# EXPERIMENTAL_PROTOCOL: KINOMEscan competition binding
# STUDY_CONDITIONS: compound 10.0 µM
Criterion: kinase still bound, per cent of control strictly less than 90%. Met: 1. Not met: 0.

COMPOUND: Cc1ccc2nc(NCCN)c3ncc(C)n3c2c1
TARGET_DESC: CAMK2A (human) (UniProt Q9UQM7)
LABEL_VALUE: 1
//
COMPOUND: OCCCNc1cc(-c2ccnc(Nc3cccc(Cl)c3)n2)ccn1
TARGET_DESC: CAMK2A (human) (UniProt Q9UQM7)
LABEL_VALUE: 0
//
COMPOUND: Cc1ccc(C(=O)Nc2cccc(C(F)(F)F)c2)cc1Nc1cncc(C(N)=O)c1
TARGET_DESC: CAMK2A (human) (UniProt Q9UQM7)
LABEL_VALUE: 0
//
COMPOUND: O=C(O)c1ccc(Nc2ncc3c(n2)-c2ccc(Cl)cc2C(c2c(F)cccc2F)=NC3)cc1
TARGET_DESC: CAMK2A (human) (UniProt Q9UQM7)
LABEL_VALUE: 1
//
COMPOUND: CCCS(=O)(=O)Nc1ccc(F)c(C(=O)c2c[nH]c3ncc(-c4ccc(Cl)cc4)cc23)c1F
TARGET_DESC: CAMK2A (human) (UniProt Q9UQM7)
LABEL_VALUE: 0
//
COMPOUND: CCC(=O)N1CCN(c2ccc(-n3c(=O)ccc4cnc5ccc(-c6cnc7ccccc7c6)cc5c43)cc2C(F)(F)F)CC1
TARGET_DESC: CAMK2A (human) (UniProt Q9UQM7)
LABEL_VALUE: 0
//
COMPOUND: CC[C@@H]1C(=O)N(C)c2cnc(Nc3ccc(C(=O)NC4CCN(C)CC4)cc3OC)nc2N1C1CCCC1
TARGET_DESC: CAMK2A (human) (UniProt Q9UQM7)
LABEL_VALUE: 1
//
COMPOUND: COc1cc(C(=O)NC2CCN(C)CC2)ccc1Nc1ncc2c(n1)N(C1CCCC1)C(C)CC(=O)N2C (stereo not drawn)
TARGET_DESC: CAMK2A (human) (UniProt Q9UQM7)
LABEL_VALUE: 1
//
COMPOUND: O=C1Nc2ccc(I)cc2/C1=C/c1cc(Br)c(O)c(Br)c1
TARGET_DESC: CAMK2A (human) (UniProt Q9UQM7)
LABEL_VALUE: 1
